biological target: UniProt:Q12866; conditions: at 10 µM
Sequence (Q12866 whole entry): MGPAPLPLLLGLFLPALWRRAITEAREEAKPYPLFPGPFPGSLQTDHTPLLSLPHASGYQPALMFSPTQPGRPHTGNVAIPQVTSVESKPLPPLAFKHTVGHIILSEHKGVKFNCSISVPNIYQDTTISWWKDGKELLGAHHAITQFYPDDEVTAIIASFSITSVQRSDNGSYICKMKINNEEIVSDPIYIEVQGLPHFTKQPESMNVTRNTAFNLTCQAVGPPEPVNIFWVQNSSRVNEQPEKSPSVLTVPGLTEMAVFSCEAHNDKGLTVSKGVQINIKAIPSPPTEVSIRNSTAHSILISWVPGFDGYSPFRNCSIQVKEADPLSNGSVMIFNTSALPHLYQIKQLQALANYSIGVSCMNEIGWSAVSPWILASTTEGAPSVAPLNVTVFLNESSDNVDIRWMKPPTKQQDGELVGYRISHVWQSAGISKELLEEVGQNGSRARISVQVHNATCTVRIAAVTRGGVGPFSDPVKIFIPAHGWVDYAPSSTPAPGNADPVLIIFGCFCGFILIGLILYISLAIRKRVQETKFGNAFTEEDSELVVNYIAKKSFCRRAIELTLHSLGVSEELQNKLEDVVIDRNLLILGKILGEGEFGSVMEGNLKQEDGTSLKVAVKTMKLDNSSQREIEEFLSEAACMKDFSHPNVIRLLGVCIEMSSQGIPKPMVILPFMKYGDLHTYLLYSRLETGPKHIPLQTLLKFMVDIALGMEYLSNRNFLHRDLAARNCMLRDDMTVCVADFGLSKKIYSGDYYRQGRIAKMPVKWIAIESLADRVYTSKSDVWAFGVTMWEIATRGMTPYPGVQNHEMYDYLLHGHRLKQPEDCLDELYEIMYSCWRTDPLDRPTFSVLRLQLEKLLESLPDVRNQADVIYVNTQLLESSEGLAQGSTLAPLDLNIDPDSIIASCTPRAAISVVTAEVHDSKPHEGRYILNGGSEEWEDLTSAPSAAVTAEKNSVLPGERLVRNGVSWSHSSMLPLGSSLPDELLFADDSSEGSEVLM
OUTCOME MEASURE: inhibition (%)

Consider the following illustrative entries.
[
  {
    "SMILES ENTRY": "O=C(O[C@H]1CN[C@H](C#Cc2cc3ncnc(Nc4ccc(Cc5ccccc5)cc4)c3s2)C1)N1CCOCC1",
    "inhibition, %": 5
  },
  {
    "SMILES ENTRY": "CCn1c(-c2nonc2N)nc2cncc(C(=O)N3CCNCC3)c21",
    "inhibition, %": 0
  },
  {
    "SMILES ENTRY": "CCn1c(-c2nonc2N)nc2cnc(Oc3cccc(NC(=O)c4ccc(N(C)C)cc4)c3)cc21",
    "inhibition, %": -6
  },
  {
    "SMILES ENTRY": "CS(=O)(=O)Nc1cccc(-c2ccc3c(NC(=O)C4CC4)n[nH]c3c2)c1",
    "inhibition, %": 47
  },
  {
    "SMILES ENTRY": "Nc1nonc1-c1nc2cnccc2n1C1CCCCC1",
    "inhibition, %": 1
  },
  {
    "SMILES ENTRY": "CNC(=O)c1cc(-c2ccc(F)cc2)cc(-c2ccc(S(=O)(=O)N3CCCC3)cc2)c1N",
    "inhibition, %": -7
  }
]

A: Fc1ccc(-c2ncn(C3CCNCC3)c2-c2ccnc(Oc3ccc(F)c(F)c3)n2)cc1
B: CCN1CCC(CC(=O)Nc2n[nH]c3nc(-c4cccs4)c(Br)cc23)CC1
Asked: Task for the reader: decide whether A or B has the larger inhibition. State the label of the item chosen.
Given back: A

I: Fc1cccc(COc2ccc(Nc3ncnc4sc(-c5ccco5)cc34)cc2Cl)c1
II: CNC(=O)c1cncc(/C=C/c2ccccc2C)c1
III: O=S(=O)(CCOCc1ccc(-c2ccc3ncnc(Nc4ccc(OCc5cccc(F)c5)c(Cl)c4)c3c2)o1)c1ccccc1
IV: CN(C)C(=O)O[C@@H]1CN[C@@H](C#Cc2cc3ncnc(Nc4ccc(OCc5cccc(F)c5)c(Cl)c4)c3s2)C1
Asked: # rank by inhibition, ascending (min first) Returns: the labels listed in the requested order.
Given back: II, III, IV, I

1: Cc1cc(O)cc(C)c1/C=C/c1cncc(C(N)=O)c1
2: COc1cc(Nc2nccc(-c3cnn4ncccc34)n2)cc(OC)c1
3: Fc1ccc(-c2nn3ccccc3c2-c2ccncc2)cc1
4: Fc1ccc(-c2cc(-c3c[nH]nc3-c3ccccn3)ccn2)cc1
Asked: Hello, I need these entries ordered by inhibition, highest reading first. Thanks! Returns: the labels listed in the requested order.
Given back: 2, 3, 4, 1
(2: 5%, 3: -2%, 4: -3%, 1: -6%)

a: O=C1Nc2ccc(-c3cccnc3)cc2C1=Cc1cc(Br)c(O)c(Br)c1
b: CN1CCN(C(=O)c2ccc(NC(=O)Nc3ccc(N(C)c4ccnc(Nc5ccc(CS(C)(=O)=O)cc5)n4)cc3)cc2)CC1
c: CCOc1ccc2c(-c3ccnc(Nc4cc(OC)cc(C(F)(F)F)c4)n3)cnn2n1
d: Cc1ccc(C(=O)NC2CCCCC2)cc1-c1ccc(C(=O)NCC2CC2)cc1
Asked: # rank by inhibition, ascending (min first) Returns: the labels listed in the requested order.
Given back: d, c, b, a
(d: -8%, c: -5%, b: 0%, a: 1%)

A: c1ccc(-c2n[nH]cc2-c2ccnc(-c3ccc(OCCn4ccnc4)cc3)c2)nc1
B: COc1cccc(COc2cc(-n3cnc4ccccc43)sc2C(N)=O)c1
C: Cc1ccc(O)cc1Nc1ccnc2cc(-c3ccccn3)ccc12
D: CN(c1ccc(NC(=O)Nc2ccc(OC(F)(F)F)cc2)cc1)c1ccnc(Nc2cccc(S(N)(=O)=O)c2)n1
E: COC(=O)Nc1nc2cc(Oc3ccc(NC(=O)Nc4cccc(C(=O)O)c4)cc3)ccc2[nH]1
Asked: # rank by inhibition, ascending (min first) Returns: the labels listed in the requested order.
Given back: C, D, A, B, E

P: CCCNc1cccc(-n2ncc3c(N/N=C/c4ccncc4)ncnc32)c1
Q: Fc1ccc(-c2ncn(CCCN3CCOCC3)c2-c2ccncc2)cc1
R: Cc1ccc(C(=O)NC2CCC2)cc1-c1ccc(C(=O)NCC2CC2)cc1
S: CCOc1nccc2c1nc(-c1nonc1N)n2CC
T: COc1ccc2cc(-c3c(-c4ccncc4)nc(-c4ccc(S(C)(=O)=O)cc4C)n3C)ccc2c1
Asked: Hello, I need these entries ordered by inhibition, highest reading first. Thanks! Returns: the labels listed in the requested order.
Given back: Q, R, P, T, S

A: N#Cc1cccc(Nc2ncc(-c3ccccc3)o2)c1
B: CS(=O)(=O)CCNCc1ccc(-c2ccc3ncnc(Nc4ccc(OCc5ccccc5)c(C(F)(F)F)c4)c3c2)o1
Asked: Task for the reader: decide whether A or B has the larger inhibition. State the label of the item chosen.
Given back: A
(A: 80%, B: -2%)

* * *

target: Inhibitor of nuclear factor kappa-B kinase subunit alpha (Homo sapiens) (UniProt O15111); conditions: at 1 µM
Sequence (O15111 whole entry): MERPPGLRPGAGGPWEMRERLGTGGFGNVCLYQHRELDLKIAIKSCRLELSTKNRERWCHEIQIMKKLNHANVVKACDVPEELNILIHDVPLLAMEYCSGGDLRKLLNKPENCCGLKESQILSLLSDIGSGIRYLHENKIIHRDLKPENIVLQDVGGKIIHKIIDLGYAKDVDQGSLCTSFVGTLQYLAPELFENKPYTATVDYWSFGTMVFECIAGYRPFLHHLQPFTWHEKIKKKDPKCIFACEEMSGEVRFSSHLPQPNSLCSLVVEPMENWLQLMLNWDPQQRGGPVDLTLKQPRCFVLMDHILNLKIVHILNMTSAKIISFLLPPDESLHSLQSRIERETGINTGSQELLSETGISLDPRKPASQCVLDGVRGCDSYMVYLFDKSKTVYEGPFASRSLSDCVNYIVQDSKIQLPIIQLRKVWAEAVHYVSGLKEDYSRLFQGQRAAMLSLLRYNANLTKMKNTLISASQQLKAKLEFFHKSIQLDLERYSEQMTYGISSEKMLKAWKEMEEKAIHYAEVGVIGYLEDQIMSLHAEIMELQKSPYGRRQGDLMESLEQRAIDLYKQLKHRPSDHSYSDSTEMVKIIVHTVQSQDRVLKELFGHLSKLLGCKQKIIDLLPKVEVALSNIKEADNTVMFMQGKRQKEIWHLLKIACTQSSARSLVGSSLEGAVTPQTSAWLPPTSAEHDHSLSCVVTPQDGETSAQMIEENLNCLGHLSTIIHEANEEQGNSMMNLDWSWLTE
OUTCOME MEASURE: inhibition (%)

[
  {
    "SMILES ENTRY": "O=C1NC(=O)C(c2ccccc2Cl)=C1Nc1cccc(O)c1",
    "OUTCOME MEASURE": "inhibition",
    "READING": 1
  }
]

I: COc1cccc(-c2c[nH]c3c(N/N=C/c4ccncc4)ncnc23)c1
II: NS(=O)(=O)c1ccc(-c2cc3ccncc3cc2OCc2ccccc2)cc1
Asked: # compare inhibition for I vs II ; return the one with the smaller value State the label of the item chosen.
Given back: II
(II: 1%, I: 2%)

* * *

target: Inhibitor of nuclear factor kappa-B kinase subunit alpha (Homo sapiens) (UniProt O15111); settings: at 1 µM
OUTCOME MEASURE: inhibition (%)

Consider the following illustrative entries.
[
  {
    "COMPOUND": "C#Cc1cccc(Nc2ncnc3ccc(OCCCCNCCS(C)(=O)=O)cc23)c1",
    "READING": 3
  },
  {
    "COMPOUND": "CCS(=O)(=O)c1ccc(OC)c(Nc2ncc(-c3cccc(C(C)=O)c3)o2)c1",
    "READING": -1
  },
  {
    "COMPOUND": "CN(c1ccc(NC(=O)NCCN2CCOCC2)cc1)c1ccnc(Nc2ccc(CS(C)(=O)=O)cc2)n1",
    "READING": 1
  }
]

1: Cn1cc(C=C2C(=O)Nc3cccnc32)c2ccccc21
2: Fc1ccc(-c2c(-c3ccncc3)nc3n2CCS3)cc1
3: COC(=O)c1ccc2c(c1)C(=Cc1cc(Br)c(O)c(Br)c1)C(=O)N2
4: CC1=C(C(=O)Nc2cc(Cl)c3[nH]ncc3c2)C(c2ccc(C(F)(F)F)cc2)CC(=O)N1 (configuration not stated)
Asked: Hello, I need these entries ordered by inhibition, highest reading first. Thanks! Returns: the labels listed in the requested order.
Given back: 1, 4, 2, 3
(1: 15%, 4: 2%, 2: -4%, 3: -7%)

I: COc1ccc(Nc2ncc(-c3ccccc3)o2)cc1OC
II: Cc1ccc(Nc2ccnc(Nc3cccc(C(N)=O)c3)n2)cc1O
Asked: Task for the reader: decide whether I or II has the larger inhibition. State the label of the item chosen.
Given back: II
(II: 2%, I: 1%)

* * *

Target: Inhibitor of nuclear factor kappa-B kinase subunit epsilon (Homo sapiens)
Sequence (whole entry): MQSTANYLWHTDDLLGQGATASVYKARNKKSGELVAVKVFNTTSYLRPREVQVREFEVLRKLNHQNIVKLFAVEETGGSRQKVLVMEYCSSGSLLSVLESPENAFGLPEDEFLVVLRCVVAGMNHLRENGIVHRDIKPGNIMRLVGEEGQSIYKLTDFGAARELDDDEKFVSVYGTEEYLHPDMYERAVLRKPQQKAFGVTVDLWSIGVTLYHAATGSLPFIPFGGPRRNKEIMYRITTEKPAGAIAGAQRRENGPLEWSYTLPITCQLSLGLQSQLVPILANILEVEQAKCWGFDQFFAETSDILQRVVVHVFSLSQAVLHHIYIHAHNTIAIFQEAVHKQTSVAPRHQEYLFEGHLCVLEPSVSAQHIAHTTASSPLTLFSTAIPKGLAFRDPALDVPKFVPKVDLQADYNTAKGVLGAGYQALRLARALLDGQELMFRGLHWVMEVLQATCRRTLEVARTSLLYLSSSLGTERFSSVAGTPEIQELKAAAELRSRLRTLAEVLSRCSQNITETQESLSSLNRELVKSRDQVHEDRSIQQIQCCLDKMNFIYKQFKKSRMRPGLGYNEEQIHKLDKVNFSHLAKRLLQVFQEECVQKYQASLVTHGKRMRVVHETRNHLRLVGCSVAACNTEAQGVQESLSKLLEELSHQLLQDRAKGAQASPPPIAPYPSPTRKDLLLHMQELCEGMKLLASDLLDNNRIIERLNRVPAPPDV
Conditions: at 1 µM
OUTCOME MEASURE: inhibition (%)

[
  {
    "SMILES ENTRY": "COc1ccccc1-c1cc(/C=C2\\C(=O)Nc3ncc(Br)cc32)cc(Br)c1O",
    "READING": 10
  },
  {
    "SMILES ENTRY": "CN1CCN(CCCNc2nc3ccc(Oc4ccc(NC(=O)Nc5cc(C(F)(F)F)ccc5F)cc4)cc3[nH]2)CC1",
    "READING": -2
  },
  {
    "SMILES ENTRY": "Nc1nc(-c2cccc(Cl)c2)c(-c2ccc3ncccc3n2)s1",
    "READING": 1
  }
]

P: Fc1cccc(COc2ccc(Nc3ncnc4cc(-c5ccc[nH]5)sc34)cc2Cl)c1
Q: CCn1c(-c2nonc2N)nc2cnc(Oc3cccc(NC(=O)c4ccc(N(C)C)cc4)c3)cc21
R: O=C1Nc2ccccc2/C1=C1\CCc2cc(O)ccc21
S: C[C@@H](Oc1cc(-n2cnc3ccc(OCC4CCN(C)CC4)cc32)sc1C(N)=O)c1ccccc1Cl
Asked: # rank by inhibition, ascending (min first) Returns: the labels listed in the requested order.
Given back: P, S, R, Q
(P: -1%, S: 3%, R: 13%, Q: 31%)
